- SYSTEM UNDER TEST: T1, hHER3 full length (human, UniProt P21860 20-1342)
- T1 construct: On transfected CHO, CHO HER2/HER3, CHO EGFR/HER3 or CHO Flp-In cells; endogenous HER3 of MCF-7 and MDA-MB468 cells in the signalling assays; also called human HER3
- PROTOCOL SUMMARY: FACS, 400 nM, competitor 21B02-biotin
Catalogue of % competition values
REPORTED METRIC: % competition (%)

binder="34C07 (VHH, c-myc, His6-tagged form as expressed; also called 34C7; HER3MS34C07) VHH: EVQLVESGGGLVQPGGSLGLSCVASGSIFRINAMAWYRQAPGKQRELVAEITAGGSTNYADSVKGRFTISVDNAWNTLYLQMNSLKVEDTAVYYCNLDHYTTWDRRSAYWGQGTQVTVSS" value=6
binder="18B05 (VHH) VHH: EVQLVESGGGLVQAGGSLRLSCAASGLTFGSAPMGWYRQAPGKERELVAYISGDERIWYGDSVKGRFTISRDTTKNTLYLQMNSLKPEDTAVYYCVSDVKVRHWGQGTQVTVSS" value=0
binder="05A09 (VHH) VHH: EVQLVESGGGLVQAGGSLRLSCAASGFTFDDYAIGWFRQAPGKEREGVSCISSSDGSTVYADSVKGRFTISSDNAKNTVYLQMNSLKPEDTAVYYCAAERRRGYSDLCRFYYGMDYWGKGTQVTVSS" value=22
binder="18E08 (VHH) VHH: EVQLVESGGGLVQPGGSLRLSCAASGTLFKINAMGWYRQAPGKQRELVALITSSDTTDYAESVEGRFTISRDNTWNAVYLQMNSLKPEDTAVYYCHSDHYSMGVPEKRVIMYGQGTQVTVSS" value=4
